# method: chemical genetic growth profiling, strain panel (AID 1159580);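 further: tested at 20 µM; growth read once vehicle control cultures reached saturation at 30 °C; 1 = growth at the plate median or of vehicle wells; lower values mean less growth of the strain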
# protocol conditions: S. cerevisiae deletion strains, growth OD, locus YER167W, strain BCK2, active compounds read low
About 2,000 (36%) of roughly 5,500 compounds were called active. About 18% were inconclusive and are not listed. The list shows a part of the results.

# mol, normalized growth
measured = [
    ("CCCN(CCC)c1c([N+](=O)[O-])cc(C(F)(F)F)cc1[N+](=O)[O-]", 0.997),
    ("O=C(O)c1cc(=O)c2ccccc2[nH]1", 1),
    ("CCCCN(CC)c1c([N+](=O)[O-])cc(C(F)(F)F)cc1[N+](=O)[O-]", 1.01),
    ("O=C1C=C(O)c2ccccc2C1=O", 0.98),
    ("O=C1c2ccccc2C(=O)c2ccccc21", 0.976),
    ("COc1cc(Cc2cnc(N)nc2N)cc(OC)c1OC", 1.01),
]

###

# method: chemical genetic growth profiling, strain panel (AID 1159580);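 further: tested at 20 µM; growth read once vehicle control cultures reached saturation at 30 °C; 1 = growth at the plate median or of vehicle wells; lower values mean less growth of the strain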
# protocol conditions: S. cerevisiae deletion strains, growth OD, locus YER167W, strain BCK2, active compounds read low
Out of some 5,500 compounds screened, about 2,000 (36%) were called active. Not shown: some 18% with an inconclusive outcome. This is one part of the list.
Measured normalized growth accompanies every entry in the list below.

# compound, normalized growth
records = [
    ("O=C1C(=O)c2ccccc2C(O)=C1C1CCC(c2ccc(Cl)cc2)CC1 (configuration not stated)", 1.01),
    ("CC(C)[C@@H]1CC[C@@H](C)CC1=O", 1.02),
    ("CCCC(=O)Nc1ccc(OCC(O)CNC(C)C)c(C(C)=O)c1 (configuration not stated)", 1.04),
    ("CN1CCCCC1c1ccc(-c2cccnc2)nc1 (configuration not stated)", 1.03),
    ("O=C(O)c1cccnc1C(=O)O", 1.02),
    ("COC(=O)C(O)[C@H]1C(C)(C)[C@@H](OC(C)=O)[C@@H]2CC3=C4CC(=O)O[C@@H](c5ccoc5)[C@]4(C)CCC3[C@@]1(C)C2=O (some centres not stated)", 0.986),
    ("CC(=O)Oc1c(C)c(C)c2c(c1C)CCC(C)(CCCC(C)CCCC(C)CCCC(C)C)O2 (configuration not stated)", 1.02),
    ("Cn1c(=O)c2c(ncn2CCO)n(C)c1=O", 0.979),
    ("O=C(Nc1ccc([N+](=O)[O-])cc1Cl)c1cc(Cl)ccc1O", 0.929),
    ("O=C(N[C@@H](CO)[C@H](O)c1ccc([N+](=O)[O-])cc1)C(Cl)Cl", 0.987),
    ("C=C(C)C1Cc2c(ccc(C(=O)O)c2O)O1 (configuration not stated)", 1),
    ("O=C(O)CCC(=O)OC[C@@H](NC(=O)C(Cl)Cl)[C@H](O)c1ccc([N+](=O)[O-])cc1", 0.997),
    ("CC(=O)OC[C@@]1(O)C[C@@]23CCC4c5ccoc5CC[C@]4(C)C2CC[C@@H]1C3 (some centres not stated)", 0.929),
    ("CNC(=O)Oc1ccccc1OC(C)C", 1),
    ("Cn1c(=O)[nH]c2nc[nH]c2c1=O", 0.997),
    ("C[C@H]1C(=O)CCC2[C@]3(C)CC[C@@]4(C)C5CC(C)(C)CC[C@]5(C)CC[C@]4(C)C3CC[C@@]21C (some centres not stated)", 0.98),
    ("O=C(/C=C/c1ccccc1)c1c(O)cc(O)cc1O", 1.01),
    ("OC[C@H]1O[C@@H](Oc2ccc(O)cc2)[C@H](O)[C@@H](O)[C@@H]1O", 1.01),
    ("Cc1cc(O)c2c(c1)C(=O)c1cc(O)cc(O)c1C2=O", 0.674),
    ("Cn1c(=O)c2c(ncn2C)n(C)c1=O", 1),
    ("COc1ccc(/C=C/c2cc(O)cc(O[C@@H]3O[C@H](CO)[C@@H](O)[C@H](O)[C@H]3O)c2)cc1", 0.978),
    ("Cn1cnc2c1c(=O)[nH]c(=O)n2C", 1.01),
]
